# Tested on: Sorghum
# protocol.description: Pre-emergent herbicidal activity (Table III); also: ranges in brackets are in %
# Format: in vivo
# settings: 5.6 kg/ha
measurement.label: Herbicidal rating

[[record]]
compound = "CC1=C(N(Cn2c(=O)sc3ccccc32)C(=O)CCl)C(C)CCC1 (stereo not shown) [Example 1]"
value_measured = "1 (25-49)"

[[record]]
compound = "COc1cccc(C)c1N(Cn1c(=O)sc2ccccc21)C(=O)CCl"
value_measured = "1 (25-49)"

[[record]]
compound = "CC1=C(N(Cn2c(=O)sc3ccccc32)C(=O)CCl)CCCC1"
value_measured = "0 (0-24)"

[[record]]
compound = "CC1=C(N(Cn2c(=O)sc3ccccc32)C(=O)CCl)C(C)CCC1 (stereo not shown) [Example 9]"
value_measured = "2 (50-74)"


---

Herbicidal rating values for the compounds below.
# System: Smartweed
# protocol.description: Pre-emergent herbicidal activity (Table III); also: ranges in brackets are in %
# Type: in vivo
# settings: 1.12 kg/ha
measurement.label: Herbicidal rating

[[record]]
compound = "CC1=C(N(Cn2c(=O)sc3ccccc32)C(=O)CCl)CCCC1"
value_measured = "1 (25-49)"

[[record]]
compound = "CC1=C(N(Cn2c(=O)sc3ccccc32)C(=O)CCl)C(C)CCC1 (stereo not drawn) [Example 1]"
value_measured = "0 (0-24)"

[[record]]
compound = "CC1=C(N(Cn2c(=O)sc3ccc(Cl)cc32)C(=O)CCl)C(C)CCC1 (stereo not drawn)"
value_measured = "2 (50-74)"


Origin of values: patent US4731451A
